Structures can show the parent of a compound that is named as a salt.
RESULT_TYPE: melting point (°C)
Numeric only. Scale: °C

c1ccc(CCCCNC[C@H]2COc3ccc4[nH]ncc4c3O2)cc1 (as salt: hydrochloride) (hydrate or solvate) [Example 2] :: 104

// recorded melting point for Fc1ccc2[nH]cc(CC3CCN(CC4COc5ccc6[nH]ncc6c5O4)CC3)c2c1 (stereo not shown) (as salt: hydrochloride) [Example 7] : 165

// recorded melting point for C1=C(c2c[nH]c3ccccc23)CCN(CC2COc3ccc4[nH]ncc4c3O2)C1 (stereo not shown) (as salt: hydrochloride) [Example 6] : 190

====

Molecular target: dopamine D2 receptor (Rattus norvegicus, UniProt P61169)
Construct: from tissue; host or cells: rat striatal brain tissue homogenate
Sequence (P61169 whole entry): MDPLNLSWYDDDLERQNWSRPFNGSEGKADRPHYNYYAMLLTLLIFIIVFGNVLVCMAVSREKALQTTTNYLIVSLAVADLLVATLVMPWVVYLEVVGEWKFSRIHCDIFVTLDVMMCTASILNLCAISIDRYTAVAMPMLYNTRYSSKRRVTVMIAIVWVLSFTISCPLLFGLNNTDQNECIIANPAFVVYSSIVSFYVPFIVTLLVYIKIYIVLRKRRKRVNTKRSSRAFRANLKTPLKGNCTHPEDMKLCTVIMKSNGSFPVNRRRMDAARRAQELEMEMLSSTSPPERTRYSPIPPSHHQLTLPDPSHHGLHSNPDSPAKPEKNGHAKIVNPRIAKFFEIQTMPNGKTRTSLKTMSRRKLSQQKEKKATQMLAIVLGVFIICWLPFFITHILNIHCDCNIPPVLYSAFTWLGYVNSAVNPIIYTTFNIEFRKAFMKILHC
Assay: Dopamine D2 receptor affinity, 3H-quinpirole binding in homogenized rat striatal brain tissue
Known log10 IC50 of a selection of molecules
Scale: decimal log of IC50, IC50 in nM.

Examples from the recorded data:
C1=C(c2c[nH]c3ccccc23)CCN(CC2COc3ccc4[nH]ncc4c3O2)C1 (stereo not shown) [Example 6] :: 0.65
c1ccc(CNC[C@H]2COc3ccc4[nH]ncc4c3O2)cc1 [Example 1] :: -0.35
c1ccc2c(CCCNCC3COc4ccc5[nH]ncc5c4O3)c[nH]c2c1 (stereo not shown) [Example 4] :: -0.77
c1cc2[nH]ncc2c2c1OCC(CNCC13CC4CC(CC(C4)C1)C3)O2 (stereo not shown) [Example 3] :: -1.00
c1ccc2c(c1)CCN(CC1COc3ccc4[nH]ncc4c3O1)C2 (stereo not shown) [Example 5] :: 0.04

// recorded log10 IC50 for Fc1ccc2[nH]cc(CC3CCN(CC4COc5ccc6[nH]ncc6c5O4)CC3)c2c1 (stereo not shown) [Example 7] : 0.53

// recorded log10 IC50 for c1ccc(CCCCNC[C@H]2COc3ccc4[nH]ncc4c3O2)cc1 [Example 2] : -0.54

====

Counter-ions that a name gives are not always drawn.
Known melting point of a selection of molecules

Examples from the recorded data:
c1ccc2c(c1)CCN(CC1COc3ccc4[nH]ncc4c3O1)C2 (stereo not shown) (as salt: hydrochloride) [Example 5] :: 170 to 172 °C
c1cc2[nH]ncc2c2c1OCC(CNCC13CC4CC(CC(C4)C1)C3)O2 (stereo not shown) (as salt: hydrochloride) [Example 3] :: > 300 °C
c1ccc(CNC[C@H]2COc3ccc4[nH]ncc4c3O2)cc1 (as salt: fumarate) (hydrate or solvate) [Example 1] :: 194 to 195.7 °C

Below: the item to evaluate.
// recorded melting point for c1ccc2c(CCCNCC3COc4ccc5[nH]ncc5c4O3)c[nH]c2c1 (stereo not shown) (as salt: oxalate) [Example 4] : 138 to 142 °C
